Some variants, each annotated with its measured protein stability index.
B1: PPFIA4 (parent)
chain: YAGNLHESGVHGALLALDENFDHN

variants of: B1; test: protein stability index of a GFP-peptide fusion (GPS, HEK-293T) (PSI 1-6); higher = more stable; conditions: c terminus: a fixed tail appended;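 also: lentivirally expressed fusions sorted by FACS into six bins by GFP to DsRed ratio, PSI derived from sequencing read proportions per bin multiplied by bin number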
The response must contain the number and no unit.

> print(dat)
   mutation.code  reported.result
1            G3A             2.79
2           A13H             2.67
3           H11C             1.22
4           H23Q             2.22
5            Y1P             5.39
6           D22R             1.56

# protein stability index (variant: H23P ) is 2.81

# protein stability index (variant: A16V ) is 2.31

# protein stability index (variant: N20S ) is 2.58

# protein stability index (variant: D18G ) is 1.95

# protein stability index (variant: N24V ) is 1.95

# protein stability index (variant: F21K ) is 2.89

# protein stability index (variant: E19K ) is 1.5

# protein stability index (variant: F21S ) is 3.56

# protein stability index (variant: Y1R ) is 3.7

# protein stability index (variant: H6D ) is 2.72

# protein stability index (variant: A13Q ) is 3.8

# protein stability index (variant: D18K ) is 2.54

Cited source: the supplement of paper PMC10567573
